test.system: C5aR polypeptide-05 (UniProt P21730)
method.notes: ELISA, polypeptide coated at 1.0 µg/mL

binder: 8B5D1A9 (antibody, V domains shown) VH: QVQLKQSGAELVKPGASVKISCKTSGYIFTDYYINWMKQRPGQGLEWIGKIGPGSGTTFYNEKFKGKATLTADKSSTTLYMQLSSLTAEDSAVYFCTRRGYYSSSYFYWGQGTTLTVSS VL: DIVMTQSPSSLSVSAGEKVIMSCKSSQSLLNSERQKNYLAWYQQKPGQSPKLLIYGASTRESGVPDRFTGSGSGTDFTLTISSVQAEDLAVYYCLNDHSYPLTFGAGTKLELK
quantity.unit: OD450 nm
OD450 nm: 0.08

binder: 43E8F5B6 (antibody, V domains shown) VH: EVQLQQSGPELVKPGASVKISCKASGYTFTDYYMSWMKQSHGKSLEWIGDINPNNGDNIYNQKFKGKATLTVDRSSSTAYMDLRSLTSEDSAVYYCARWYYYVSSFSYWYFDVWGTGTTVTVSS VL: EIVLTQSPTTMAASPGEKITITCSATSSINSNYLHWYQQKPGFSPKLLIYRTSNLASGVPARFSGSGSGTSYSLTIGTMEAEDVATYYCQQGRTIPRTFGSGTKLEIK
quantity.unit: OD450 nm
OD450 nm: 0.06

binder: 9D5A12G7 (antibody, V domains shown) VH: QVQLKQSGPGLVQPSQSLSITCTVSGFSLTSYGVHWVRQSPGKGLEWLGVIWSGGSTDYNAAFISRLSISKDNSKSQVFFKMNSLQADDTAIYYCARNGLLGNAMDYWGQGTSVTVSS VL: DIVMSQSPSSLAVSAGEKVTMSCKSSQSLLSSRTRKNYLAWYQQKPGQSPKLLIYWASTRESGVPDRFTGSGSGTDFTLTISSVQTEDLAVYYCKQSYNLLTFGAGTTLELK
quantity.unit: OD450 nm
OD450 nm: 0.41

binder: 2A12B2B2 (antibody, V domains shown) VH: QVQLQQPGADLVKPGASVKMSCKASGYILTTYWITWVKQRPGQGLEWIGDIHPGSGSTKYNEKFKSKATLTVDTSSSTAYMQLTRLSSEDSAVYYCARRDYWGQGTTLTVSS VL: DIQMTQTTSSLSASLGDKVTISCRASQDISNYLSWYQQKPDGTVKLLIYWISRLHSGVPSRFSGSGSGTDFSLTISNLEQEDIATYFCQQGNSLPPTFGGGTKLEVK
quantity.unit: OD450 nm
OD450 nm: 0.29

binder: 5F8E2C11 (antibody, V domains shown) VH: QVQLRQSGPGLVQPSQSLSITCTVSGFSLTSYGVHWVRQSPGKGLEWLGVIWSGGSTDYNAAFISRLSISKDYSKSQIFLTMNSLQTDDTAIYYCARNSRLGNCFDYWGQGTTLTVSS VL: DIVMSQSPSSLAVSAGEKVTMSCKSSQSLLNSRTRKNYLAWYQQKPGQSPKLLIYWASTRESGVPDRFTGSGSGTDFTLTISSVQAEDLAVYYCKQSYNLPAFGGGTKLEIK
quantity.unit: OD450 nm
OD450 nm: 0.56
